molecular target: T1, human BKB2R-derived epitope peptide (SEQ ID NO:73), PEG-biotin (human, also: PEG-biotin, site not given here); assay: BLI (Octet), peptide-PEG-biotin on streptavidin sensor, antibody 500 nM
T1 construct: also called immunogenic human BKB2R peptide fragment
T1 peptide: KEYSDEGHNVTAC
Where no end group is shown, it is not given here.
Entries and their measured log10 kon follow.
// stored as log10 of kon expressed in M⁻¹ s⁻¹

The following binders have reported results that may help.
BINDER	ENDPOINT RESULT
humanized anti-BKB2R antibody H39/L37 (antibody, human IgG2, kappa, V domains shown) VH: EVKLVESGGGLVQPGGSLRLSCAVSGFTFSDYWMDWVRQAPGKGLEWVAEIRLKSDNYATHYAASVKGRFTISRDDSKSRLYLQMNSLKTEDTAVYYCTRDYYAMEYWGQGTTVTVSS VL: DIVMTQTPLSLSVTPGQPASISCKSSQTIVHSNGKTYLYWYLQKPGQSPQLLIYKVSSRFSGVPDRFSGSGSGTDFTLKISRVEAEDVGVYYCFQASHVPYTFGQGTKLEIKR	6.09
chimeric/humanized anti-BKB2R antibody L2/HC (antibody, human IgG2, V domains shown, not shown: human IgG2 constant region) VH: EVKLEESGGGLVQPGGSMKLSCVVSGFTFSDYWMSWVRHSPEMGLEWVAEIRLKSDNYATHYAESVKGRFTISRDDSKSRLYLQINSLRGEDTGIYYCTRDYYAMEYWGQGTSVTVSS VL: DIVMTQSPLSLPVTPGEPASISCRSSQTIVHSNGKTYLEWYLQKPGQSPQLLIYKVSNRFSGVPDRFSGSGSGTEFTLKISRVEAEDVGVYYCFQASHVPYTFGQGTKLEIKR	5.16

According to the records, this binder humanized anti-BKB2R antibody L1/H1 (antibody, human IgG2, kappa, V domains shown, also called H1/L1) VH: EVQLVESGGGLVQPGGSLRLSCAASGFTFSDYWMSWVRQAPGKGLEWVAEIRLKSDNYATHYAESVKGRFTISRDNAKNSLYLQMNSLRAEDTAVYYCTRDYYAMEYWGQGTLVTVSS VL: DIVMTQSPLSLPVTPGEPASISCRSSQTIVHSNGKTYLEWYLQKPGQSPQLLIYKVSNRFSGVPDRFSGSGSGTDFTLKISRVEAEDVGVYYCFQASHVPYTFGQGTKLEIKR displays log10 kon of 5.61

According to the records, this binder humanized anti-BKB2R antibody H37/L37 (antibody, human IgG2, kappa, V domains shown) VH: EVQLVESGGGLVQPGGSLRLSCAASGFTFSDYWMDWVRQAPGKGLEWVGEIRLKSDNYATHYAASVKGRFTISRDDSKNSLYLQMNSLKTEDTAVYYCTRDYYAMEYWGQGTTVTVSS VL: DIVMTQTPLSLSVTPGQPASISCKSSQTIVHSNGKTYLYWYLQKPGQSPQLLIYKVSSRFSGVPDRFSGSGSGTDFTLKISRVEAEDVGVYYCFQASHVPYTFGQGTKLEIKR displays log10 kon of 6.19

According to the records, this binder humanized anti-BKB2R antibody H37/L39 (antibody, human IgG2, kappa, V domains shown) VH: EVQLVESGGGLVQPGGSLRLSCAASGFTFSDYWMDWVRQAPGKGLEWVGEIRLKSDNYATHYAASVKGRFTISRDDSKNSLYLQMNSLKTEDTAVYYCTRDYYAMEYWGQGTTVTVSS VL: DVVMTQTPLSLSVTPGQPASISCKSSQTIVHSNGKTYLEWYLQKPGQSPQLLIYKVSNRFSGVPDRFSGSGSGTDFTLKISRVEAEDVGVYYCFQASHVPYTFGQGTKLEIKR displays log10 kon of 6.05

According to the records, this binder humanized anti-BKB2R antibody H38/L39 (antibody, human IgG2, kappa, V domains shown) VH: EVQLLESGGGLVQPGGSLKLSCAVSGFTFSDYWMSWVRQAPGKGLEWVSEIRLKSDNYATHYADSVKGRFTISRDDSKNTLYLQMNSLRAEDTAVYYCTRDYYAMEYWGQGTLVTVSS VL: DVVMTQTPLSLSVTPGQPASISCKSSQTIVHSNGKTYLEWYLQKPGQSPQLLIYKVSNRFSGVPDRFSGSGSGTDFTLKISRVEAEDVGVYYCFQASHVPYTFGQGTKLEIKR displays log10 kon of 9.06

According to the records, this binder humanized anti-BKB2R antibody H39/L39 (antibody, human IgG2, kappa, V domains shown) VH: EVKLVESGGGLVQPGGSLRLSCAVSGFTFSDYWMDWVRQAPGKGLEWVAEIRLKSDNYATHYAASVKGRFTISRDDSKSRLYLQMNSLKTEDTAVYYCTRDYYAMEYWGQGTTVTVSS VL: DVVMTQTPLSLSVTPGQPASISCKSSQTIVHSNGKTYLEWYLQKPGQSPQLLIYKVSNRFSGVPDRFSGSGSGTDFTLKISRVEAEDVGVYYCFQASHVPYTFGQGTKLEIKR displays log10 kon of 5.86
